- target: High affinity choline transporter 1 (Homo sapiens, UniProt Q9GZV3)
- Sequence (Q9GZV3 whole entry): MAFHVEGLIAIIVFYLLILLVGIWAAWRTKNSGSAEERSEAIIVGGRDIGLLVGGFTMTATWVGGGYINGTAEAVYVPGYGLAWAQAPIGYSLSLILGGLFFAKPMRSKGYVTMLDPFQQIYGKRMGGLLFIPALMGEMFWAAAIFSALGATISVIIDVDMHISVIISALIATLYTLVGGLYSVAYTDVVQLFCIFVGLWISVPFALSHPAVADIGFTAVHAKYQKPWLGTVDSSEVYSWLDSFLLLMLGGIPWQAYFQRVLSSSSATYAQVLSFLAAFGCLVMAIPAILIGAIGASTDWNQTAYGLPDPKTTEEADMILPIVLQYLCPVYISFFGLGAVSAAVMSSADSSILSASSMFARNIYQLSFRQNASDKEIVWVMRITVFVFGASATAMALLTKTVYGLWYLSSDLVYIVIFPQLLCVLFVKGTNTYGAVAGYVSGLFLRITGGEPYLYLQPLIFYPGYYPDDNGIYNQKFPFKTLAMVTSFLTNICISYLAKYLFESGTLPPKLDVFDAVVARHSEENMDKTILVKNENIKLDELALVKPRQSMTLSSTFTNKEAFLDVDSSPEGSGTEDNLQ
- assay.explanation: CHT inhibitors, dose response, cell-based, 5-point CRC, membrane potential dye (AID 504840)
- Format: functional
The source made the active and inactive calls. The rule behind the calls is not given here.
IC50 by entry:

// known answers, use as guide
In [3]: df
Out[3]:
                                   compound  quantity    reported_value
0  COc1ccc(C(=O)NCCC2=CCCCC2)cc1OC1CCN(C(C)C)CC1      IC50  2.63 µM (active)
1  COc1ccccc1NC(=O)C1CCCN(c2ncnc3c2nc2n3CCCCC2)C1 (stereo not drawn)      IC50  15.1 µM (active)
2  COc1ccccc1CCC(=O)OCC(=O)c1c(N)n(CC(C)C)c(=O)n(C)c1=O      IC50  14.8 µM (active)
3  CC1CCCCC1NC(=O)CCn1ccc2cc(S(=O)(=O)N3CCCC3)ccc21 (stereo not drawn)      IC50    17 µM (active)
4       c1ccc(CCc2nn3c(Cc4ccccc4)nnc3s2)cc1      IC50  27.5 µM (active)

Lookup: Which IC50 reading was recorded for the compound `O=[N+]([O-])c1cc(C(F)(F)F)cc([N+](=O)[O-])c1N1CCCNCC1` ?
Found: 10.2 µM (active)

Lookup: Which IC50 reading was recorded for the compound `CCc1ccc(Nc2c([N+](=O)[O-])nn(-c3ccc4c(c3)OCCO4)[n+]2[O-])cc1` ?
Found: 12.6 µM (active)

Lookup: Which IC50 reading was recorded for the compound `CCCn1c2ccccc2c2cnn(CC(=O)NCCCN3CCCCC3)c(=O)c21` ?
Found: 12.6 µM (active)

* * *

- target: Heat shock protein HSP 90-alpha (Homo sapiens)
- Type: functional, organism-based
Calls of active or inactive are those of the source.
quantity: AC50

>>> print(df.to_string())
                                   compound    reported_value
0  O=C(/C=C/c1ccc(F)cc1)NC(=S)NNC(=O)c1cnccn1  3.35 µM (active)
1  N#C/C(=C\c1cccc(Oc2ccccc2)c1)C(=O)N1CCOCC1  8.82 µM (active)
2  O=C(OCC(=O)N1CCN(C(=O)c2ccco2)CC1)c1cc(-c2cccc(Br)c2)nc2ccccc12  4.25 µM (active)
3  CCCCC(=O)NC(c1ccc(Cl)cc1)c1ccc2cccnc2c1O (stereo unspecified)    15 µM (active)
4      CCOC(=O)NN=C1c2ccccc2-c2nc3nonc3nc21  1.26 µM (active)

Lookup: Which AC50 reading was recorded for the compound CCCCC(=O)NC(c1ccco1)c1cc(Cl)c2cccnc2c1O (stereo unspecified) ?
Found: 4.37 µM (active)

* * *

- target: Cytochrome P450 2C9 (Homo sapiens, UniProt P11712)
- Sequence (P11712 whole entry): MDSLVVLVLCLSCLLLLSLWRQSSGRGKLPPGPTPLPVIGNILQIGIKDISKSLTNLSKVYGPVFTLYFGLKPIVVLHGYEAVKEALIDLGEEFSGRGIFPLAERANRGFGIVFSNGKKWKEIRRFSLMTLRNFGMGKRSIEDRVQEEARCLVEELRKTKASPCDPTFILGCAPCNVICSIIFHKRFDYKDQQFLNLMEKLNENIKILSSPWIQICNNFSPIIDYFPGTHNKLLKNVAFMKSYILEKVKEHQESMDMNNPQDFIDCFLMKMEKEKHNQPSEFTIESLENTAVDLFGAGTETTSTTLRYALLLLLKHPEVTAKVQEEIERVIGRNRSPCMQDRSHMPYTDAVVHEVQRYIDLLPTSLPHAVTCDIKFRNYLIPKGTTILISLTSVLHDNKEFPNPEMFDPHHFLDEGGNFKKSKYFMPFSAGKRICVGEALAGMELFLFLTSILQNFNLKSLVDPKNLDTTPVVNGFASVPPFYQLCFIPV
quantity: AC50

// known answers, use as guide
>>> df
                                   compound  quantity           reported_value
0  Cc1c(NC(=O)/C=C/C(=O)O)cccc1[N+](=O)[O-]      AC50   28.2 µM (inconclusive)
1  O=C(NCC(=O)N(c1ccccc1)C(C(=O)NC1CCCC1)c1cccnc1)c1cccs1 (stereo not drawn)      AC50   17.8 µM (inconclusive)
2  COc1ccc2[nH]cc(CCNc3ccnc(-c4ccoc4)n3)c2c1      AC50  0.794 µM (inconclusive)
3  CC(C)C(NC(=O)C12CC3CC(CC(C3)C1)C2)C(=O)NC1=NCCS1 (stereo not drawn)      AC50   25.1 µM (inconclusive)
4  COc1ccc(-c2coc3cc4oc(=O)cc(C)c4cc23)cc1F      AC50   5.01 µM (inconclusive)
5             O=c1[nH]c(=S)[nH]nc1Cc1ccccc1      AC50   39.8 µM (inconclusive)

Lookup: API: value(readout=AC50, system=Cytochrome P450 2C9 (Homo sapiens, UniProt P11712)) for record `CCCN1CCc2cc(O)cc3c2[C@H]1Cc1ccc(O)c(O)c1-3`
Found: 39.8 µM (inconclusive)

Lookup: API: value(readout=AC50, system=Cytochrome P450 2C9 (Homo sapiens, UniProt P11712)) for record Cc1ccc(CNC(=O)C2CCC(=O)N2C2CCCCC2)cc1 (stereo not drawn)
Found: 7.08 µM (inconclusive)
